Hello, the source for this data is patent US20220380463A1, in case you need it.

Would you kindly list MFI pH 6.0/MFI pH 7.4 for each of these binders?
test.target: T1, human CD3 on CD3+ Jurkat cells (human, UniProt P07766 23-207)
T1 construct: whole, on cells; Native CD3 complex on cells; the other CD3 chains are not specified for this assay; also called Human CD3+ Jurkat
T1 sequence (P07766 23-207): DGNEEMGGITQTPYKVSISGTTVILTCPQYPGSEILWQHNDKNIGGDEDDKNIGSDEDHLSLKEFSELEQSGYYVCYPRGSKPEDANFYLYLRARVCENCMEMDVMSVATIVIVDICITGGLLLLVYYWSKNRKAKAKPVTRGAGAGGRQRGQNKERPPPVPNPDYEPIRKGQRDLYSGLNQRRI
test.details: flow cytometry on CD3+ Jurkat cells, ratio of MFI at pH 6.0 to pH 7.4

stdin: // lookup MFI pH 6.0/MFI pH 7.4 for SAD10318_P01_B02 (ADI-48582) (antibody, V domains shown, IgG; also called Ab248) VH: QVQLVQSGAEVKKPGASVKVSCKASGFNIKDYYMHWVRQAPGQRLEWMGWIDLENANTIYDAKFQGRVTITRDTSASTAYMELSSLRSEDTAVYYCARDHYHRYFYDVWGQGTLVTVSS VL: DIVMTQSPDSLAVSLGERATINCKSSQSLLNARTGHNHLAWYQQKPGQPPKLLIYWASTRESGVPDRFSGSGSGTDFTLTISSLQAEDVAVYYCKQSHSHRTFGGGTKVEIK
stdout: 9

stdin: // lookup MFI pH 6.0/MFI pH 7.4 for SAD10320_P04_G10 (ADI-48658) (antibody, V domains shown, IgG; also called Ab108) VH: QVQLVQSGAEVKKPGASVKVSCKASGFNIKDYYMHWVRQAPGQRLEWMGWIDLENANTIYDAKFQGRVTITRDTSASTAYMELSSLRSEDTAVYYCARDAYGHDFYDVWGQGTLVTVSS VL: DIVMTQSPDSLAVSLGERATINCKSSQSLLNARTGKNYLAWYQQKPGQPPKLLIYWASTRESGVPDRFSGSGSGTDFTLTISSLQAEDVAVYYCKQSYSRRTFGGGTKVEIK
stdout: 0.4
